# pEC50 per entry
# target-or-system: F508delCFTR (Homo sapiens, UniProt P13569, DEL508-508)
# Construct: expressed in transfected cells; host or cells: CFBE41o- human lung derived epithelial cells (CFBE41o-F508delCFTR-HRP), doxycycline-inducible
# Sequence (P13569 with tags, fused parts or gaps DEL508-508): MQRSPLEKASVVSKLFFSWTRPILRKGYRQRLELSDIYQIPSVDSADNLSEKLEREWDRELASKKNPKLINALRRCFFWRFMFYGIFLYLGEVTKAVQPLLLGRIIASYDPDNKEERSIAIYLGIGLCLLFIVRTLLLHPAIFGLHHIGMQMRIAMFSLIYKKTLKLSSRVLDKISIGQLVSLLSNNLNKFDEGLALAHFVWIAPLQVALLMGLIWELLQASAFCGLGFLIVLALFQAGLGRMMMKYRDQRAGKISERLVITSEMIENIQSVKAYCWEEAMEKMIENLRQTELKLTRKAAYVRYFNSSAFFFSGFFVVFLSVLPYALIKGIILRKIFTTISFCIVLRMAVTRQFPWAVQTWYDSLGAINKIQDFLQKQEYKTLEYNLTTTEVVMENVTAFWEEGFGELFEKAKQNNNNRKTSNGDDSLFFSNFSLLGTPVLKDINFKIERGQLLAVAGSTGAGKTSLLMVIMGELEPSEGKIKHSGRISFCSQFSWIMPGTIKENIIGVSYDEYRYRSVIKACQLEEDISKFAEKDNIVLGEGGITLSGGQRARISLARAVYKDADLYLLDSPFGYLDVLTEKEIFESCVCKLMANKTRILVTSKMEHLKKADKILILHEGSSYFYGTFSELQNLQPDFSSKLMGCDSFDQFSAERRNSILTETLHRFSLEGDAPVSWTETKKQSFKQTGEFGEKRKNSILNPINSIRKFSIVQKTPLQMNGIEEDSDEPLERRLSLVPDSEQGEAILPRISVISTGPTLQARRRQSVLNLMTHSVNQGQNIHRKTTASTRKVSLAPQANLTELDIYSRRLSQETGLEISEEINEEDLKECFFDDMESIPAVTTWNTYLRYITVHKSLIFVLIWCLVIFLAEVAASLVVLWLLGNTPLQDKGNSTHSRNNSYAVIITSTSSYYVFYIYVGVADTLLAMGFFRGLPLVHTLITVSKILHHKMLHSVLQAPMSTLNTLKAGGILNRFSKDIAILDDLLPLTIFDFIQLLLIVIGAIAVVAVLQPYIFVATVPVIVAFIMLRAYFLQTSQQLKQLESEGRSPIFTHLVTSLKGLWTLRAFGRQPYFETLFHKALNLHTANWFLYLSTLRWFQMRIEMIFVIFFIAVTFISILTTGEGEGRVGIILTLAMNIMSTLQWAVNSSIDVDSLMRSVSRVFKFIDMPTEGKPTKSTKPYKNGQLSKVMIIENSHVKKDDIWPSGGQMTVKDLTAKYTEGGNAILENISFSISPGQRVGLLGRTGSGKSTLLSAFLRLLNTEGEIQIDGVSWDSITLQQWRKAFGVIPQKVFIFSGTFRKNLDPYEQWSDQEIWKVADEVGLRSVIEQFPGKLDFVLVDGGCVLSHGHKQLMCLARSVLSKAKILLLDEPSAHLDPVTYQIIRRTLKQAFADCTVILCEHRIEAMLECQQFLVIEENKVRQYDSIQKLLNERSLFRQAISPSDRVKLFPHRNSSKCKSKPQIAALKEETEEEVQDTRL
# assay-remarks: Cell Surface Expression-Horse Radish Peroxidase (CSE-HRP) Assay;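 on EC50 (with co-corrector): co-corrector chromenyl benzoic acid corrector at 2 or 3 µM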
# Format: cell-based
# study-conditions: test compound with co-corrector; read-out: EC50 (with co-corrector)
pEC50: −log10 of the molar value.
assay-metric: pEC50

INSERT INTO assay_data (compound, measurement) VALUES
  ('COc1ncc(C2(C(=O)NS(=O)(=O)c3cccc4c3CCCN4)CC2)c(OC)n1 [GIII-12]', '< 5.00'),
  ('CC(C)Oc1cnc(OC(C)C)c(C2(C(=O)NS(=O)(=O)c3cccc4ncccc34)CC2)c1 [Example GI-65]', '> 5.52'),
  ('CC(C)COc1ncc(C2CCC2)cc1C1(C(=O)NS(=O)(=O)c2cccc3[nH]ccc23)CC1 [Example GI-52]', '> 5.52'),
  ('Cc1cnc(OC(C)C)c(C2(C(=O)NS(=O)(=O)c3cccc4nc(C)ccc34)CC2)c1 [Example GI-58]', '> 5.52'),
  ('CC(C)Oc1cc(C2CCC2)cnc1C1(C(=O)NS(=O)(=O)c2cccc3ncccc23)CC1 [GII-27]', '5.00 to 5.52'),
  ('CC(C)COc1ncc(C2CC2)cc1C1(C(=O)NS(=O)(=O)c2cccc3ncccc23)CC1 [Example GI-48]', '> 5.52'),
  ('Cc1cnc(N2CCCC2)c(C2(C(=O)NS(=O)(=O)c3cccc4[nH]ccc34)CC2)c1 [GII-37]', '5.00 to 5.52'),
  ('COCCOc1ncc(C2CCC2)cc1C1(C(=O)NS(=O)(=O)c2cccc3ncccc23)CC1 [Example GI-111]', '> 5.52'),
  ('O=C(NS(=O)(=O)c1cccc2[nH]ccc12)C1(c2cc(C3CCC3)cnc2OCC2CC2)CC1 [Example GI-98]', '> 5.52'),
  ('CC(C)Oc1ncc(N2CCC2)cc1C1(C(=O)NS(=O)(=O)c2cccc3[nH]ccc23)CC1 [Example GI-85]', '> 5.52'),
  ('COc1cnc(OCC2CC2)c(C2(C(=O)NS(=O)(=O)c3cccc4nc(C)ccc34)CC2)c1 [Example GI-92]', '> 5.52'),
  ('COCCOc1ncc(C)cc1C1(C(=O)NS(=O)(=O)c2cccc3nc(C)ccc23)CC1 [GII-50]', '5.00 to 5.52'),
  ('CC(C)Oc1ncc(N(C)C)cc1C1(C(=O)NS(=O)(=O)c2cccc3ncccc23)CC1 [Example GI-71]', '> 5.52'),
  ('CCc1cnc(N2CCN(C)CC2)c(C2(C(=O)NS(=O)(=O)c3cccc4ncccc34)CC2)c1 [GIII-33]', '< 5.00'),
  ('O=C(NS(=O)(=O)c1cccc2ccccc12)C1(c2cc(Cl)cnc2C(F)(F)F)CC1 [GII-5]', '5.00 to 5.52'),
  ('O=C(NS(=O)(=O)c1cccc2c1CCCN2)C1(c2cc(C3CCC3)cnc2N2CCCC2)CC1 [Example GI-31]', '> 5.52');

----------
# target-or-system: F508delCFTR (Homo sapiens, UniProt P13569, DEL508-508)
# Construct: expressed in transfected cells; host or cells: CFBE41o- human lung derived epithelial cells (CFBE41o-F508delCFTR-HRP), doxycycline-inducible
# assay-remarks: Cell Surface Expression-Horse Radish Peroxidase (CSE-HRP) Assay;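 on EC50 (with co-corrector): co-corrector chromenyl benzoic acid corrector at 2 or 3 µM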
# Assay type: cell-based
# study-conditions: with co-corrector; read-out: EC50 (with co-corrector)
pEC50: −log10 of the molar value.
assay-metric: pEC50

INSERT INTO measurements (compound, assay_metric, measurement) VALUES
  ('COc1ccc(C#N)cc1C1(C(=O)NS(=O)(=O)c2cccc3c2CCCN3)CC1 [Example III-100]', 'pEC50', '5.00 to 5.52'),
  ('CCC(C)c1ccc(OC)c(C2(C(=O)NS(=O)(=O)c3cccc4c3CCCN4)CCC2)c1 (stereo not shown) [II-22]', 'pEC50', '> 5.52'),
  ('COc1ccc(C2(OC)CCC2)cc1C1(C(=O)NS(=O)(=O)c2cccc3ncccc23)CC1 [Example I-88]', 'pEC50', '> 5.52'),
  ('Cc1ccc(OC2COC2)c(C2(C(=O)NS(=O)(=O)c3cccc4ncccc34)CC2)c1 [Example I-93]', 'pEC50', '> 5.52'),
  ('COc1cccc(C)c1C1(C(=O)NS(=O)(=O)c2cccc3c2ccn3C)CC1 [Example III-102]', 'pEC50', '5.00 to 5.52'),
  ('COC(=O)C1(c2ccc(OC)c(C3(C(=O)NS(=O)(=O)c4cccc5ncccc45)CC3)c2)CC1 [II-30]', 'pEC50', '> 5.52'),
  ('O=C(NS(=O)(=O)c1ccc2c(c1)CCC2)C1(c2ccc(Cl)cc2Cl)CC1 [Example III-8]', 'pEC50', '5.00 to 5.52'),
  ('CCOc1ccc(C)cc1C1(C(=O)NS(=O)(=O)c2cccc3nc(N(C)C)ccc23)CC1 [Example III-134]', 'pEC50', '> 5.52'),
  ('COc1ccc(C(C)(C)C)cc1C1(C(=O)NS(=O)(=O)c2cccc3c2CCCN3)CC1 [Example I-39]', 'pEC50', '> 5.52'),
  ('COc1cc(C2CCC2)cc(OC)c1C1(C(=O)NS(=O)(=O)c2cccc3nc(N)ccc23)CC1 [II-70]', 'pEC50', '> 5.52'),
  ('COc1ncc(C(F)(F)F)cc1C1(C(=O)NS(=O)(=O)c2cccc3ccn(C)c23)CC1 [II-17]', 'pEC50', '> 5.52'),
  ('COc1ccc(C2CCC2)cc1C1(C(=O)NS(=O)(=O)c2cccn3nccc23)CCC1 [Example I-23]', 'pEC50', '> 5.52'),
  ('O=C(NS(=O)(=O)c1ccccc1)C1(c2ccccc2F)CC1 [Example III-30]', 'pEC50', '5.00 to 5.52');

----------
# Emax per entry
# target-or-system: F508delCFTR (Homo sapiens, UniProt P13569, DEL508-508)
# Construct: expressed in transfected cells; host or cells: CFBE41o- human lung derived epithelial cells (CFBE41o-F508delCFTR-HRP), doxycycline-inducible
# assay-remarks: Cell Surface Expression-Horse Radish Peroxidase (CSE-HRP) Assay;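 on Maximum % activity (without co-corrector): % of on-plate positive control chromenyl benzoic acid corrector at 2 or 3 µM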
# Assay type: cell-based
# study-conditions: without co-corrector; maximum at any tested concentration; read-out: Maximum % activity (without co-corrector)
assay-metric: Emax

INSERT INTO assay_data (compound, assay_metric, measurement) VALUES
  ('COc1cccc(C)c1C1(C(=O)NS(=O)(=O)c2cccc3nc(C)ccc23)CC1', 'Emax', '> 150%'),
  ('Cc1ccc2c(S(=O)(=O)NC(=O)C3(c4cc(C(F)(F)F)cnc4N(C)C)CC3)cccc2n1', 'Emax', '> 150%'),
  ('COc1ncc(C2CCC2)c(C)c1C1(C(=O)NS(=O)(=O)c2cccc3ccn(C)c23)CC1', 'Emax', '50 to 150%'),
  ('Cc1ccccc1S(=O)(=O)NC(=O)C1(c2cccc(Cl)c2)CCCC1', 'Emax', '< 50%'),
  ('CCC(C)c1ccc(OC)c(C2(C(=O)NS(=O)(=O)c3cccc4c3CCCN4)CCC2)c1 (stereo not drawn)', 'Emax', '> 150%'),
  ('CCOc1ccc(C2(OC)CCC2)cc1C1(C(=O)NS(=O)(=O)c2cccc3nc(C)ccc23)CC1', 'Emax', '> 150%'),
  ('COc1ncc(C2CCC2)cc1C1(C(=O)NS(=O)(=O)c2cccc3cnn(C)c23)CC1', 'Emax', '> 150%'),
  ('COc1ncc(C(F)(F)F)cc1C1(C(=O)NS(=O)(=O)c2cccc3c2CCCN3)CC1', 'Emax', '> 150%'),
  ('CCOc1cccc(OCC)c1C1(C(=O)NS(=O)(=O)c2cccc3ncccc23)CC1', 'Emax', '> 150%'),
  ('O=C(NS(=O)(=O)c1cccc2ncccc12)C1(c2ccccc2OC(F)(F)F)CCC1', 'Emax', '> 150%'),
  ('CCOc1ccc(OC)c(C2(C(=O)NS(=O)(=O)c3cccc4nc(C)ccc34)CC2)c1', 'Emax', '> 150%'),
  ('COc1cccc(C)c1C1(C(=O)NS(=O)(=O)c2cccc3c2CCCN3)CC1', 'Emax', '> 150%'),
  ('CCOc1ccc(C)cc1C1(C(=O)NS(=O)(=O)c2cccc3nc(NC)ccc23)CC1', 'Emax', '> 150%'),
  ('COc1ccc(C2CC2)cc1C1(C(=O)NS(=O)(=O)c2cccc3ncccc23)CC1', 'Emax', '> 150%'),
  ('COc1ccc(C2(C(=O)NS(=O)(=O)c3ccccc3)CC2)cc1', 'Emax', '< 50%'),
  ('COc1ccc(C2CCC2)cc1C1(C(=O)NS(=O)(=O)c2cccc3c2ccn3C)CC1', 'Emax', '> 150%'),
  ('O=C(NS(=O)(=O)Cc1ccccc1)C1(c2ccc(F)cc2)CC1', 'Emax', '< 50%'),
  ('Cc1ccc(S(=O)(=O)NC(=O)C2(c3cccc(Cl)c3)CC2)cc1C', 'Emax', '< 50%'),
  ('CC(C)(C)OC(=O)N1CCC(S(=O)(=O)NC(=O)C2(c3ccc(Cl)cc3Cl)CC2)CC1', 'Emax', '< 50%'),
  ('CCc1ccc(O[C@H](C)COC)c(C2(C(=O)NS(=O)(=O)c3cccc4ncccc34)CC2)c1', 'Emax', '> 150%'),
  ('COc1ccc(C2CC2)c(C)c1C1(C(=O)NS(=O)(=O)c2cccc3c2CCCN3)CC1', 'Emax', '> 150%'),
  ('COc1ccc(C2CCC2)cc1C1(C(=O)NS(=O)(=O)c2cccc3[nH]ncc23)CC1', 'Emax', '> 150%'),
  ('COc1ccc(C2CCC2)cc1C1(C(=O)NS(=O)(=O)c2cccn3nccc23)CCC1', 'Emax', '> 150%'),
  ('COc1ncc(C2CCC2)cc1C1(C(=O)NS(=O)(=O)c2cccc3c2CCCN3)CC1', 'Emax', '> 150%'),
  ('CCOc1ccc(C)cc1C1(C(=O)NS(=O)(=O)c2cccc3[nH]ncc23)CC1', 'Emax', '> 150%'),
  ('COc1ccc(C2(C)COC2)cc1C1(C(=O)NS(=O)(=O)c2cccc3ncccc23)CC1', 'Emax', '> 150%'),
  ('COc1ccc(Cl)c(OC)c1C1(C(=O)NS(=O)(=O)c2cccc3ncccc23)CC1', 'Emax', '> 150%'),
  ('CC(C)(C)OC(=O)N1CCC(C(=O)NS(=O)(=O)c2cccc3ccccc23)(c2ccc(F)cc2)CC1', 'Emax', '< 50%'),
  ('COc1ncc(C)cc1C1(C(=O)NS(=O)(=O)c2cccc3c2CCCN3)CC1', 'Emax', '> 150%'),
  ('COc1cc(C2(C(=O)NS(=O)(=O)c3cccc4nc(N)ccc34)CC2)c(OCC(C)C)cn1', 'Emax', '> 150%');
